System: HT-29
test.summary: Cytotoxicity against human HT29 colon tumor cells
Assay type: functional, cell-based
1 (yes) if IC50 is below 0.1 mg/L. 0 (no) if not; exact matches included in 0 (no).

CC(C)[C@]12O[C@H]1[C@]13O[C@H]1C[C@H]1C4=C(CC[C@]1(C)[C@@]31O[C@H]1[C@H]2O)C(=O)OC4	0 (no)
CC(C)[C@]12O[C@H]1[C@@H]1O[C@]13[C@]1(O[C@H]1C[C@H]1C4=C(CC[C@@]13C)C(=O)OC4)[C@H]2OC(=S)n1ccnc1	0 (no)
CC(C)[C@]12O[C@H]1[C@@H]1O[C@@]13[C@@]1(C)CCC4=C(COC4=O)[C@@H]1C[C@@H]1O[C@@]13C2=O [TRIPTONIDE]	1 (yes)
CC(C)[C@]12O[C@H]1[C@]13O[C@H]1C[C@H]1C4=C(CC[C@]1(C)[C@@]31O[C@H]1[C@@H]2O)C(=O)OC4	0 (no)
CC(C)[C@]12O[C@H]1[C@]13O[C@H]1C[C@H]1C4=C(CC[C@]1(C)[C@@]31O[C@H]1C2=O)C(=O)OC4	0 (no)
CC(C)C1=C[C@]23O[C@H]2C[C@H]2C4=C(CC[C@]2(C)[C@@]32O[C@H]2C1=O)C(=O)OC4	0 (no)

Now examine the next entry.
QUERY: Dear colleague, could you confirm whether IC50 of CC(C)[C@]12O[C@H]1[C@@H]1O[C@]13[C@]1(O[C@H]1C[C@H]1C4=C(CC[C@@]13C)C(=O)OC4)[C@@H]2OC(=S)n1ccnc1 falls below 0.1 mg/L? Thanks.
RESULT: 1 (yes)

Entry source: ChEMBL document CHEMBL1146928
